Target: human α7 nAChR (Homo sapiens, UniProt P36544)
Construct: expressed in transfected cells; host or cells: GH4C1 cells derived from rat pituitary (ATCC CCL-82.2)
Sequence (P36544 23-502): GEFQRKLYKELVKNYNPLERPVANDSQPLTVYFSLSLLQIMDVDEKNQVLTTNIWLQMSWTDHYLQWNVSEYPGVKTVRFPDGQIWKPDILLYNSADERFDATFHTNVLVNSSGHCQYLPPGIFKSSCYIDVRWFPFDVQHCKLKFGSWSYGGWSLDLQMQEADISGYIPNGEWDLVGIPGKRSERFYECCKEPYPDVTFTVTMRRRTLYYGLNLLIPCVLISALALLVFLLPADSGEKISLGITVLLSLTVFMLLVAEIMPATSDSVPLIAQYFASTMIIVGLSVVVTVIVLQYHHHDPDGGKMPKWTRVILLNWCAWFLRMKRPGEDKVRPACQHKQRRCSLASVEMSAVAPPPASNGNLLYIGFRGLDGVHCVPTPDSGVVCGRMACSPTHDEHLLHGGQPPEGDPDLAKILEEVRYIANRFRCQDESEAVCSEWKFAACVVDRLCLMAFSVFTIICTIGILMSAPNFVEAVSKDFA
Assay: Evaluation of PAM activity with human α7 nACh receptor stably expressing cells (aequorin luminescence, FDSS7000)
Assay type: cell-based
Conditions: test compound 10 μmol/L; ACh added at EC20; ratio of RLU (Max-Min) of test wells to control wells
Protocol: Human α7 nAChR stably expressing cells were generated and cultured. In detail, GH4C1 cells derived from rat pituitary (cat#CCL-82.2, ATCC, USA) were used as a host cell. […] FDSS7000 (Hamamatsu Photonics) was used to detect the luminescence signal evoked by α7 nAChR stimulation. […] After the addition of ACh, the luminescence signal (the central wavelength: 465 nm) was measured for 138 seconds to calculate RLU (Max-Min). […]
experimental.readout: α7PAM (%) @ 10 μmol/L

Worked set:
molecule	α7PAM (%) @ 10 μmol/L
COCC1CCC(NC(=O)N2CCC(n3ncc4cc(Br)ccc43)CC2)CC1 (stereo not drawn) [Example 238]	1031%
COC(C)c1ccc2c(cnn2C2CCN(C(=O)N[C@H]3CC[C@H](OC)CC3)CC2)c1 (stereo partly drawn) [Example 245]	182%
CCc1ccc2c(cnn2C2CCCN(C(=O)NC3CCC(OC)CC3)CC2)c1 (stereo not drawn) [Example 84]	179%
[2H]C([2H])([2H])O[C@H]1CC[C@H](NC(=O)N2CCC(n3ncc4cc(C([2H])([2H])[2H])ccc43)CC2)CC1 [Example 308]	1021%
O=C(NC1CCC1)N1CCC(n2ncc3cc(C4CC4)ccc32)CC1 [Example 185]	494%

Note: attention shifts to another entry.
Let me check: CCc1ccc2c(cnn2[C@H]2CC[C@@H](NC(=O)C3CCOCC3)CC2)c1 [Example 120] , system human α7 nAChR (Homo sapiens, UniProt P36544), measured α7PAM (%) @ 10 μmol/L is 654%

---

// reported α7PAM (%) @ 10 μmol/L per item
Target: human α7 nAChR (Homo sapiens)
Construct: expressed in transfected cells; host or cells: GH4C1 cells derived from rat pituitary (ATCC CCL-82.2)
Assay: Evaluation of PAM activity with human α7 nACh receptor stably expressing cells (aequorin luminescence, FDSS7000)
Assay type: cell-based
Conditions: test compound 10 μmol/L; ACh added at EC20; ratio of RLU (Max-Min) of test wells to control wells
# unit: % | format: bare number

Worked set:
molecule	α7PAM (%) @ 10 μmol/L
CCc1ccc2c(cnn2[C@H]2CC[C@@H](C(=O)NC3CCCC3)CC2)c1	429
COCc1c(C2CC2)ccc2c1cnn2C1CCN(C(=O)NC2CCC(F)(F)CC2)CC1	851
CC(C)Oc1cccc2c1cnn2C1CCN(C(=O)NC2CCC(F)(F)CC2)CC1	342
COCc1cccc2c1cnn2C1CCN(C(=O)NC2CCC(F)(F)CC2)CC1	711
COc1ccc2c(c1)c(C)nn2C1CCN(C(=O)N[C@H]2CC[C@H](OC)CC2)CC1	901
CCc1cccc2c1cnn2C1CCN(C(=O)N[C@H]2CC[C@@H](OC)CC2)CC1	292

Let me check: CC(C)c1ccc2c(cnn2C2CCN(C(=O)NC3CCOCC3)CC2)c1 , system human α7 nAChR (Homo sapiens), measured α7PAM (%) @ 10 μmol/L is 728

Let me check: COc1ccc2c(cnn2C2CCN(C(=O)N[C@@H]3CCCCC3(F)F)CC2)c1 , system human α7 nAChR (Homo sapiens), measured α7PAM (%) @ 10 μmol/L is 1081
